Source of measurements: patent US20080255031A1

Recorded Ki values (β2-adrenergic receptors (Cavia porcellus, UniProt Q8K4Z4)) are given below.
Reply numerically in µM, unit not repeated.

>  <COMPOUND>
COc1ccccc1OC[C@H](O)CN1CCN(CC(=O)Nc2c(C)cccc2C)CC1

>  <UNIT_ABBREVIATION>
µM

>  <Ki>
39

$$$$

INPUT: Quick one: Ki for COc1ccccc1OCC(O)CN1CCN(CC(=O)Nc2c(C)cccc2C)CC1 (racemic) ?
OUTPUT: 14.8

----------
target: CYP2D6 (Homo sapiens, UniProt P10635); assay: biochemical
Sequence (P10635 whole entry): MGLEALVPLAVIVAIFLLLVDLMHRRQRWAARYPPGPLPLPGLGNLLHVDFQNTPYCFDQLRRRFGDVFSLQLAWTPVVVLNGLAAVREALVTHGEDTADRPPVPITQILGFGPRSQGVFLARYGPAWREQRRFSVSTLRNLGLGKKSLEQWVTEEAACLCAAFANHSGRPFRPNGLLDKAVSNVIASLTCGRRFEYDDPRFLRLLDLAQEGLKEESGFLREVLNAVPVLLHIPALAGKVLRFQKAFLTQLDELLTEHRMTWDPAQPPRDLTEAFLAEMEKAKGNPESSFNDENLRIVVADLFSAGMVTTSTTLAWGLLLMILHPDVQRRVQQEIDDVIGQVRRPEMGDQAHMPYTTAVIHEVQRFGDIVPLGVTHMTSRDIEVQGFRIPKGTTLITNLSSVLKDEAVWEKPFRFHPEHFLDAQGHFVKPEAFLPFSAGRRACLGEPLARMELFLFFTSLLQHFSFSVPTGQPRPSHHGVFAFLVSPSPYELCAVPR
Listed below: IC50 values for each entry.

>  <COMPOUND_STRUCTURE>
COc1ccccc1OC[C@H](O)CN1CCN(CC(=O)Nc2c(C)cccc2C)CC1

>  <IC50>
430 µM

$$$$

Okay, next one:
INPUT: What value of IC50 has been reported for the following compound? COc1ccccc1OC[C@@H](O)CN1CCN(CC(=O)Nc2c(C)cccc2C)CC1
OUTPUT: 130 µM

----------
system: Female rabbit isolated hearts; test: LV monophasic action potential duration (MAPD90) in female rabbit isolated hearts; conditions: Oryctolagus cuniculus; paced at 1 Hz; read-out: EC50 to prolong LV MAPD90 (Base)
ASSAY_ENDPOINT: EC50
Put your answer as a value accompanied by its unit after it.

INPUT: Which EC50 is listed for COc1ccccc1OCC(O)CN1CCN(CC(=O)Nc2c(C)cccc2C)CC1 (racemic) [ranolazine] ?
OUTPUT: 4.3 µM

----------
target: β1-adrenergic receptors (Rattus norvegicus)
Sequence (P18090 whole entry): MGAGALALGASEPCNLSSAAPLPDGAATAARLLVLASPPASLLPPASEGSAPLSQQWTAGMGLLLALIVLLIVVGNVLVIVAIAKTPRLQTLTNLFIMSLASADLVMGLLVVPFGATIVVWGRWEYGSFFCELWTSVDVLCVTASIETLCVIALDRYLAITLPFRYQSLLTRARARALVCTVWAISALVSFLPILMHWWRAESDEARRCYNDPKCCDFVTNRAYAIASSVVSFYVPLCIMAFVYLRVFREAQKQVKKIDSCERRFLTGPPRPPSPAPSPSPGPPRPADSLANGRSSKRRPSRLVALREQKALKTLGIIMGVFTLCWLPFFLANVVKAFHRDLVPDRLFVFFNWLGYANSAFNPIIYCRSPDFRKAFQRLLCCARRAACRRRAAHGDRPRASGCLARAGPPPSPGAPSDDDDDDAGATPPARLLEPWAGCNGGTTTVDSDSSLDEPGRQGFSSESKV
ASSAY_ENDPOINT: pKi
Please note pKi is a logarithmic value: minus log10 of concentration in mol/L. Answer with that number alone.

INPUT: May I ask what pKi has been recorded for COc1ccccc1OCC(O)CN1CCN(CC(=O)Nc2c(C)cccc2C)CC1 (racemic) [ranolazine] ?
OUTPUT: 5.07
